The reported numbers originate from the supplement of paper PMC10127200.

test system: 786-O; test: Euclidean distance of Cell Painting phenotypic profile (signed KS, 77 features) to DMSO centroid (dimensionless distance); 5 or 10 uM (library dependent); higher = stronger phenotypic change vs DMSO (phenoactivity); settings: 48 h
Counter-ions that a name gives are not always drawn.
Reported metric: Euclidean distance
Answer with the value's number alone.

The examples below pair each entry with its known result.
>  <Molecule>
CC(C)(C)Cn1c(N)nc2ccc(-c3[nH]c(C(C)(C)C)nc3-c3ccc(F)cc3)nc21

>  <Euclidean distance>
4.34

$$$$
>  <Molecule>
CNC[C@H](O)c1cccc(O)c1 [Phenylephrine HCl]

>  <Euclidean distance>
1.46

$$$$
>  <Molecule>
Cc1coc2c1C(=O)C(=O)c1c-2ccc2c(C)cccc12

>  <Euclidean distance>
1.41

$$$$
>  <Molecule>
CCCCCCNC(=O)n1cc(F)c(=O)[nH]c1=O

>  <Euclidean distance>
2.44

$$$$
>  <Molecule>
Oc1cc(O)c(Cl)cn1

>  <Euclidean distance>
0.868

$$$$
>  <Molecule>
C[C@]12CCC(=O)C=C1CC[C@@H]1[C@@H]2C(=O)C[C@@]2(C)[C@H]1CC[C@]2(O)C(=O)CO

>  <Euclidean distance>
1.73

$$$$
>  <Molecule>
O=c1[nH]cnc2nc[nH]c12

>  <Euclidean distance>
1.19

$$$$
>  <Molecule>
COc1cc2c(Oc3ccc(NC(=O)C4(C(=O)Nc5ccc(F)cc5)CC4)cc3F)ccnc2cc1OCCCN1CCOCC1

>  <Euclidean distance>
1.39

$$$$

With those in mind, consider the next molecule.
Data request: What Euclidean distance value was documented for this molecule, CC1=Nc2ccc(Cl)cc2S(=O)(=O)N1 [Diazoxide] ?
Data returned: 1.25

---

system: OVCAR4; experiment: Euclidean distance of Cell Painting phenotypic profile (signed KS, 77 features) to DMSO centroid (dimensionless distance); 5 or 10 uM (library dependent); higher = stronger phenotypic change vs DMSO (phenoactivity); details: 48 h
Criterion: Euclidean distance meeting or surpassing 1. Met: Criterion met. Not met: Criterion not met.

Example cases with answers are listed next.
>  <Compound>
COc1ccc(COc2ccc(Cc3cnc(N)nc3N)cc2OC)cc1

>  <Assigned class>
Criterion not met

$$$$
>  <Compound>
Cc1cc(C)nc(NS(=O)(=O)c2ccc(NC(=S)NC(=O)COc3ccc(Br)cc3Cl)cc2)n1

>  <Assigned class>
Criterion not met

$$$$
>  <Compound>
CC(C)(C)C(O)/C=C/c1ccc2c(c1)OCO2 (stereo not drawn)

>  <Assigned class>
Criterion not met

$$$$

Data request: I'd appreciate it if you could say whether CC(C(=O)O)c1cccc(C(=O)c2ccccc2)c1 (stereo not drawn) has Euclidean distance at least equal to 1.
Data returned: Criterion met

---

test system: A549; experiment: Euclidean distance of Cell Painting phenotypic profile (signed KS, 77 features) to DMSO centroid (dimensionless distance); 5 or 10 uM (library dependent); higher = stronger phenotypic change vs DMSO (phenoactivity); conditions: 48 h
Where a name gives a salt, the structure may show the parent alone.
Reported metric: Euclidean distance
Answer with the value's number alone.

The examples below pair each entry with its known result.
>  <Molecule>
CCCCN(CCCC)CC(O)c1cc(Cl)cc2c1-c1ccc(Cl)cc1/C2=C/c1ccc(Cl)cc1 (stereo not drawn)

>  <System name>
A549

>  <Euclidean distance>
1.42

$$$$
>  <Molecule>
C=CCc1cc(OC)c(O)c(C(=O)NCCO)c1 [Alibendol]

>  <System name>
A549

>  <Euclidean distance>
0.655

$$$$
>  <Molecule>
C#C[C@]1(O)CC[C@H]2[C@@H]3CCC4=CCCC[C@@H]4[C@H]3CC[C@@]21C

>  <System name>
A549

>  <Euclidean distance>
1.3

$$$$
>  <Molecule>
O=C(Cc1cccc(OC(F)(F)F)c1)Nc1ccc(CCCCc2nnc(NC(=O)Cc3ccccn3)s2)nn1

>  <System name>
A549

>  <Euclidean distance>
2.41

$$$$
>  <Molecule>
CC(=O)N1CCN(c2ccc(OCC3COC(Cn4ccnc4)(c4ccc(Cl)cc4Cl)O3)cc2)CC1 (stereo not drawn)

>  <System name>
A549

>  <Euclidean distance>
0.896

$$$$

Data request: What Euclidean distance value was documented for this molecule, CCCNc1nc(Nc2ccc(C#N)cc2)ncc1C#CCCCNC(=O)[C@H](C)N(C)C(=O)/C=C/CN(C)C ?
Data returned: 4.68

Data request: What Euclidean distance value was documented for this molecule, OCc1ccc(-c2ccc(-c3ccc(CO)s3)o2)s1 ?
Data returned: 2.26

Data request: What Euclidean distance value was documented for this molecule, CC(=O)NS(=O)(=O)c1ccc(N)cc1 [Sulfacetamide sodium salt hydrate] ?
Data returned: 0.692

Data request: What Euclidean distance value was documented for this molecule, C[C@@H](CN1CC(=O)NC(=O)C1)N1CC(=O)NC(=O)C1 [Dexrazoxane HCl (ICRF-187. ADR-529)] ?
Data returned: 1.71

Data request: What Euclidean distance value was documented for this molecule, CCN1/C(=C/C(C)=O)Sc2ccc(OC)cc21 ?
Data returned: 0.711

---

Euclidean distance values by entry
tested on: DU145; assay: Euclidean distance of Cell Painting phenotypic profile (signed KS, 77 features) to DMSO centroid (dimensionless distance); 5 or 10 uM (library dependent); higher = stronger phenotypic change vs DMSO (phenoactivity); details: 48 h
Where a name gives a salt, the structure may show the parent alone.
Answer with the value's number alone.

The examples below pair each entry with its known result.
>  <Compound>
CC(C(=O)O)c1cccc(Oc2ccccc2)c1 (configuration not stated) [Fenoprofen calcium hydrate]

>  <Reported metric>
Euclidean distance

>  <Meas value>
0.898

$$$$
>  <Compound>
OCCN1CCN(CCCN2c3ccccc3Sc3ccc(C(F)(F)F)cc32)CC1 [Fluphenazine dihydrochloride]

>  <Reported metric>
Euclidean distance

>  <Meas value>
1.87

$$$$

Data request: What Euclidean distance value was documented for this compound, CN(NC(=O)CC(=O)NN(C)C(=S)c1ccccc1)C(=S)c1ccccc1 [Elesclomol (STA-4783)] ?
Data returned: 4.86

Data request: What Euclidean distance value was documented for this compound, C#Cc1cccc(Nc2ncnc3cc(OCCOC)c(OCCO)cc23)c1 ?
Data returned: 1.82

Data request: What Euclidean distance value was documented for this compound, C[C@H](Nc1ncnc2nc[nH]c12)c1cc2cccc(Cl)c2c(=O)n1-c1ccccc1 [Duvelisib (IPI-145. INK1197)] ?
Data returned: 2.77

Data request: What Euclidean distance value was documented for this compound, O=C(Nc1ccccc1)c1ccccc1O [Salicylanilide] ?
Data returned: 0.393

Data request: What Euclidean distance value was documented for this compound, CCNC(=O)[C@@H]1CCCN1C(=O)[C@H](CCCNC(=N)N)NC(=O)[C@H](CC(C)C)NC(=O)[C@@H](CC(C)C)NC(=O)[C@H](Cc1ccc(O)cc1)NC(=O)[C@H](CO)NC(=O)[C@H](Cc1c[nH]c2ccccc12)NC(=O)[C@H](Cc1c[nH]cn1)NC(=O)[C@@H]1CCC(=O)N1 [Leuprorelin Acetate] ?
Data returned: 1.17

---

Euclidean distance values by entry
tested on: A549; assay: Euclidean distance of Cell Painting phenotypic profile (signed KS, 77 features) to DMSO centroid (dimensionless distance); 5 or 10 uM (library dependent); higher = stronger phenotypic change vs DMSO (phenoactivity); conditions: 48 h
Answer with the value's number alone.

>  <Smiles record>
CO[C@H]1/C=C/O[C@@]2(C)Oc3c(C)c(O)c4c(c3C2=O)C2=NC3(CCN(CC(C)C)CC3)NC2=C(NC(=O)/C(C)=C\C=C\[C@H](C)[C@H](O)[C@@H](C)[C@@H](O)[C@@H](C)[C@H](OC(C)=O)[C@@H]1C)C4=O

>  <Meas value>
0.759

$$$$
>  <Smiles record>
Cn1cnc2c1c(=O)[nH]c(=O)n2C

>  <Meas value>
0.658

$$$$
>  <Smiles record>
CCN(CC)Cc1ccc2cc(COC(=O)Nc3ccc(C(=O)NO)cc3)ccc2c1

>  <Meas value>
3.9

$$$$

Data request: Enter reported Euclidean distance observed with A549 for FCOC(C(F)(F)F)C(F)(F)F
Data returned: 0.865

---

test system: HEPG2; assay: Euclidean distance of Cell Painting phenotypic profile (signed KS, 77 features) to DMSO centroid (dimensionless distance); 5 or 10 uM (library dependent); higher = stronger phenotypic change vs DMSO (phenoactivity); settings: 48 h
Counter-ions that a name gives are not always drawn.
Criterion: Euclidean distance meeting or surpassing 0.9. Met: TRUE. Not met: FALSE.

Example cases with answers are listed next.
>  <Compound>
Cc1ccccc1C(C(=O)NC1CCCCC1)N(C(=O)Cn1ccnc1C)c1cccc(F)c1 (centres undefined)

>  <Assigned class>
FALSE

$$$$
>  <Compound>
NC(=O)NC1NC(=O)NC1=O (centres undefined)

>  <Assigned class>
TRUE

$$$$
>  <Compound>
NCCCC[C@@H]1NC(=O)[C@@H](Cc2ccccc2)NC(=O)[C@H](CC(=O)O)NC(=O)CNC(=O)[C@H](CCCN=C(N)N)NC1=O [Cyclo (-RGDfK)]

>  <Assigned class>
TRUE

$$$$
>  <Compound>
Cc1cccn2c(=O)c(-c3nnn[nH]3)cnc12

>  <Assigned class>
FALSE

$$$$
>  <Compound>
O=C(O)CNC(=O)c1ncc(-c2cccc(Cl)c2)cc1O

>  <Assigned class>
FALSE

$$$$

Data request: I'd appreciate it if you could say whether N[C@@H](Cc1c[nH]c2ccccc12)C(=O)O has Euclidean distance at least equal to 0.9.
Data returned: FALSE

Data request: I'd appreciate it if you could say whether CN(C)C(=O)N[C@H]1CC[C@H](CCN2CCN(c3cccc(Cl)c3Cl)CC2)CC1 [Cariprazine HCl] has Euclidean distance at least equal to 0.9.
Data returned: TRUE

Data request: I'd appreciate it if you could say whether CC(=O)c1cc([N+](=O)[O-])c(Sc2cccc(Cl)c2Cl)s1 has Euclidean distance at least equal to 0.9.
Data returned: FALSE

Data request: I'd appreciate it if you could say whether COc1cc2c(Oc3ccc(NC(=O)C4(C(=O)Nc5ccc(F)cc5)CC4)cc3F)ccnc2cc1OCCCN1CCOCC1 has Euclidean distance at least equal to 0.9.
Data returned: TRUE
